Test system: SLC-ICR or SLC-ddy strain male mice
Test: Acute toxicity
Assay type: in vivo
Settings: 500 mg/kg, oral, once; observed for 7 days
PROPERTY NAME: Mortality rate (No. of death/No. of treated)

- COMPOUND: "CCCCc1sc2nc(C)c(C(O)c3ccccc3)n2c1C (stereo not shown)"
  RECORDED VALUE: "0/5"
- COMPOUND: "Cc1nc2sccn2c1C(C)O (stereo not shown)"
  RECORDED VALUE: "2/5"
- COMPOUND: "CCCCc1sc2nc(C)c(CO)n2c1C"
  RECORDED VALUE: "0/5"
- COMPOUND: "Cc1nc2scc(C)n2c1CO"
  RECORDED VALUE: "0/5"
- COMPOUND: "CCCCc1sc2nc(C)c(C(O)CCC)n2c1C (stereo not shown)"
  RECORDED VALUE: "0/5"
- COMPOUND: "Cc1nc2sccn2c1C(O)c1ccccc1 (stereo not shown)"
  RECORDED VALUE: "2/6"

Proceeding to the next compound to report its Mortality rate (No. of death/No. of treated).
Enquiry: Fill in reported Mortality rate (No. of death/No. of treated) for this entry: CCCC(O)c1c(C)nc2sccn12 (stereo not shown)
Return: 3/8
